# measurement-protocol: qHTS Assay for Identifying Gametocytocidal Compounds (AID 743244);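 also: % is scaled to controls: 0 for no effect and ±100 for the full control effect; actives lower the fluorescent signal which means gametocytes are killed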
# condition-set: P. falciparum 3D7 stage III-V gametocytes, alamarBlue, 72 h; hits give low values
Records with an inconclusive call do not appear.
Listing of recorded max response by entry.
Value expressed in %; do not type the unit.

Answered examples (5):
compound: CNC[C@@H]1CC[C@@H](N)[C@@H](O[C@H]2[C@H](O)[C@@H](O[C@H]3OC[C@](C)(O)[C@H](NC)[C@H]3O)[C@H](N)C[C@@H]2N)O1
endpoint-unit: %
quantitative-readout: -11.2
//
compound: C[N+](C)(CCCCCC[N+](C)(C)C1c2ccccc2-c2ccccc21)C1c2ccccc2-c2ccccc21
endpoint-unit: %
quantitative-readout: -0.956
//
compound: CCCCCCCCCC(=O)O
endpoint-unit: %
quantitative-readout: 10.1
//
compound: O=[N+]([O-])c1ccc(Oc2ccc(N=C=S)cc2)cc1
endpoint-unit: %
quantitative-readout: 16.5
//
compound: O=C(O)[C@@H](O)[C@H](O)[C@H](O)[C@@H](O)C(=O)O (tested in a mixture with another compound)
endpoint-unit: %
quantitative-readout: 5.9

Noted for OC(CN1CCCCC1)c1cc(-c2ccccc2)on1 (centres undefined) : its max response reads -4.26

Noted for "O=C(O)c1cccc(/C=C2/C[C@@H]3[C@@H](/C=C/[C@@H](O)C4CCCCC4)[C@H](O)C[C@@H]3O2)c1" : its max response reads -5.6

Noted for "CCCCc1cc2c(=O)c(C(=O)OC)c[nH]c2cc1OCc1ccccc1" : its max response reads 5.7

Noted for COc1ccnc(CS(=O)c2nc3cc(OC(F)F)ccc3[nH]2)c1OC (centres undefined) : its max response reads -13.5

Noted for "COC(=O)C1=C(C)NC(C)=C(C(=O)O[C@H]2CCN(Cc3ccccc3)C2)[C@H]1c1cccc([N+](=O)[O-])c1" : its max response reads 22.4

Noted for "CCCCOC(=O)C(=O)Nc1cccc(-c2nn[nH]n2)c1" : its max response reads 31.5

Noted for "CCCOc1ccc2nc(NC(=O)OC)sc2c1" : its max response reads -5

Noted for "CCOC(=O)[C@H](CCc1ccccc1)N[C@@H](C)C(=O)N1CC2(C[C@H]1C(=O)O)SCCS2" : its max response reads 8.21

###

# experimental-system: Glutathione peroxidase 1 (Homo sapiens) (UniProt P07203)
# Sequence (P07203 whole entry, looked up): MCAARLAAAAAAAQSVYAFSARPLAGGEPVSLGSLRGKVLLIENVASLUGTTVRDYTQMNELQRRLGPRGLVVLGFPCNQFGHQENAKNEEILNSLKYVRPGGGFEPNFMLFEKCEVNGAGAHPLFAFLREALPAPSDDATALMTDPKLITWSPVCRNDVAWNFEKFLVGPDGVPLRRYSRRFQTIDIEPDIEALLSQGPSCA
# measurement-protocol: Primary qHTS Assay for Inhibitors of Recombinant Selenoprotein Glutathione Peroxidase 1 (GPX1) (AID 1845191); also: nearly all actives have a fitted effect of over 65% in size
# condition-set: recombinant GPX1, GR-coupled NADPH fluorescence, 15 min; series mostly up to 48.8 µM
Results filed as inconclusive are left out. Activity calls are given as the source filed them. Calls come from the whole dose curve; as a rule, active = well fitted inhibition curve with a large enough effect; inconclusive = small, poorly fitted or top-dose-only effect; inactive = flat fitted curve, though single readings scatter.
observable: outcome

compound: Cc1nc(C(=O)N2CCC[C@H]2Cc2nnc(-c3ccccc3)o2)c(-c2ccccc2F)s1
experimental-system: Glutathione peroxidase 1 (Homo sapiens) (UniProt P07203)
result: inactive
--
compound: COc1c(CCC(=O)O)cccc1O[C@@H]1O[C@H](CO)[C@@H](O)[C@H](O)[C@H]1O
experimental-system: Glutathione peroxidase 1 (Homo sapiens) (UniProt P07203)
result: inactive
--
compound: Cc1nc(Nc2ccc(F)cc2)nc(N2CCc3ccccc3C2C)c1C (centres undefined)
experimental-system: Glutathione peroxidase 1 (Homo sapiens) (UniProt P07203)
result: inactive
--
compound: CC(C)CCCCC(=O)N[C@@H](CO)C(=O)N[C@@H](CC(C)C)C(=O)[C@@]1(CO)CO1
experimental-system: Glutathione peroxidase 1 (Homo sapiens) (UniProt P07203)
result: inactive
--
compound: CN1CCN(c2ccc(OC(F)(F)F)c(Nc3ncc4c(n3)-c3c(c(C(N)=O)nn3CCO)CC4)c2)CC1
experimental-system: Glutathione peroxidase 1 (Homo sapiens) (UniProt P07203)
result: inactive
--
compound: CC(C)(C)c1ccc(-c2nc3c(N4CCN(Cc5ccc6nccnc6c5)CC4)cccc3[nH]2)cc1
experimental-system: Glutathione peroxidase 1 (Homo sapiens) (UniProt P07203)
result: inactive
--
compound: COc1c(C)cc(NC(=O)c2nn(Cc3ccc(F)cc3)c3c2CN(C(=O)c2ccc[nH]2)C[C@]3(C)C(N)=O)cc1C
experimental-system: Glutathione peroxidase 1 (Homo sapiens) (UniProt P07203)
result: inactive
--
compound: COc1ccc(CNc2nc(N(CCO)CCO)nc3c2ncn3C(C)C)cc1
experimental-system: Glutathione peroxidase 1 (Homo sapiens) (UniProt P07203)
result: inactive
--
compound: COc1cc(/C=N\NC(=O)c2ccc3c(c2)OCO3)ccc1OCc1ccccc1
experimental-system: Glutathione peroxidase 1 (Homo sapiens) (UniProt P07203)
result: inactive
--
compound: CC(C)CCNC(=O)[C@H](CC(C)C)NC(=O)[C@H]1O[C@@H]1C(=O)O
experimental-system: Glutathione peroxidase 1 (Homo sapiens) (UniProt P07203)
result: inactive

The measured outcome that "c1ccc(-c2cnn3cc(-c4ccc(OCCN5CCOCC5)cc4)cnc23)cc1" showed for Glutathione peroxidase 1 (Homo sapiens) (UniProt P07203) is inactive

The measured outcome that "CN(C)Cc1ccccc1" showed for Glutathione peroxidase 1 (Homo sapiens) (UniProt P07203) is inactive

The measured outcome that "CCCCc1ccc(NS(=O)(=O)c2ccc(F)cc2)cc1" showed for Glutathione peroxidase 1 (Homo sapiens) (UniProt P07203) is inactive
